# system_name: human PHD2 (Homo sapiens (Human))
# protocol_text: Test 2: human PHD2 inhibitory activity, fluorescence polarization assay of HIF-1α peptide proline hydroxylation
# Format: biochemical
# experimental_conditions: test compound's concentration 1 μM; Test 2, fluorescence polarization assay; read-out: Percent inhibition (% at 1 μM)
measurement_name: inhibition at 1 µM (%)

The following compounds have reported results that may help.
compound: O=C(O)CNC(=O)C1=C(O)CCN(C[C@H]2CC[C@H](Oc3ccccn3)CC2)C1=O [Ex. 1-439]
scale_unit: %
inhibition at 1 µM: 81
//
compound: COc1ccc(-c2ccc(CN3CCC(O)=C(C(=O)NCC(=O)O)C3=O)cn2)cc1 [Ex. 2-35]
scale_unit: %
inhibition at 1 µM: 96

(P) O=C(O)CNC(=O)C1=C(O)CCN(C2CCCCC2)C1=O [Ex. 1-307]
(Q) O=C(O)CNC(=O)C1=C(O)CCN(Cc2ccc(-c3ccccc3)c(F)c2)C1=O [Ex. 1-125]
Which value of inhibition at 1 µM is numerically greater: that of P or that of Q ? Output the label that corresponds to your choice.
Q

---

# system_name: human PHD2 (Homo sapiens (Human))
# protocol_text: Test 1: human PHD2 inhibitory activity, [14C]-2-oxoglutarate to [14C]-succinic acid radiometric assay with HIF-1α peptide
# Assay type: biochemical
# experimental_conditions: test compound's concentration 1 μM; Test 1, [14C]-2-oxoglutarate radiometric assay; read-out: Percent inhibition (% at 1 μM)
measurement_name: inhibition at 1 µM (%)

molecule: O=C(O)CNC(=O)C1=C(O)CC2(COC2)N(Cc2ccc(-c3ccccc3)cc2)C1=O
system_name: human PHD2 (Homo sapiens (Human))
recorded_measurement: 94
--
molecule: O=C(O)CNC(=O)C1=C(O)C2(CC2)CN(Cc2ccc(Br)cc2)C1=O
system_name: human PHD2 (Homo sapiens (Human))
recorded_measurement: 92

(I) CC1CC(O)=C(C(=O)NCC(=O)O)C(=O)N1Cc1ccc(Cl)c(Cl)c1 (stereo not shown)
(II) O=C(O)CNC(=O)C1=C(O)C2(CCCCCC2)CN(Cc2ccc(-c3ccccc3)cc2)C1=O
Endpoint returns the identifier whose inhibition at 1 µM is numerically larger, either I or II . Respond with the label that goes with your answer.
I
(I: 77%, II: 21%)

---

# system_name: UniProtKB Q9GZT9
# protocol_text: Test 2: human PHD2 inhibitory activity, fluorescence polarization assay of HIF-1α peptide proline hydroxylation
# Format: biochemical
# experimental_conditions: test compound's concentration 1 μM; Test 2, fluorescence polarization assay; read-out: Percent inhibition (% at 1 μM)
measurement_name: inhibition at 1 µM (%)

Consider the worked cases shown below.
smiles_structure: CC(C)Oc1ccc(CN2C(=O)C(C(=O)NCC(=O)O)=C(O)CC2(C)C)cc1
scale_unit: %
inhibition at 1 µM: 64

smiles_structure: O=C(O)CNC(=O)C1=C(O)CCN(C[C@H]2CC[C@H](OCc3ccc(F)cc3)CC2)C1=O
scale_unit: %
inhibition at 1 µM: 90

(P) Nc1ccc(-c2ccc(CN3CCC(O)=C(C(=O)NCC(=O)O)C3=O)cc2)cn1
(Q) CC1(C)CC(O)=C(C(=O)NCC(=O)O)C(=O)N1CC1CN(c2ncccn2)C1
From the recorded data, which exceeds the other in inhibition at 1 µM: P or Q ? Label of pick, please.
P
(P: 97%, Q: 4%)

---

# system_name: human PHD2 (Homo sapiens (Human))
# protocol_text: Test 2: human PHD2 inhibitory activity, fluorescence polarization assay of HIF-1α peptide proline hydroxylation
# Format: biochemical
# experimental_conditions: test compound's concentration 1 μM; Test 2, fluorescence polarization assay; read-out: Percent inhibition (% at 1 μM)
Counter-ions that a name gives are not always drawn.
measurement_name: inhibition at 1 µM (%)

compound: COc1cnccc1-c1ccc(CN2CCC(O)=C(C(=O)NCC(=O)O)C2=O)cc1 [Ex. 2-2, sodium salt]
scale_unit: %
recorded_measurement: 98

compound: Cc1ccc(CN2CCC(O)=C(C(=O)NCC(=O)O)C2=O)c(C)c1 [Ex. 1-60]
scale_unit: %
recorded_measurement: 76

compound: CC1CC(O)=C(C(=O)NCC(=O)O)C(=O)N1Cc1cnc(-c2ccccc2)s1 (stereo not shown) [Ex. 1-94]
scale_unit: %
recorded_measurement: 92

compound: O=C(O)CNC(=O)C1=C(O)CC2(COC2)N(Cc2ccc(OCC3CC3)cc2)C1=O [Ex. 6-14]
scale_unit: %
recorded_measurement: 80

---

# system_name: human PHD2 (Homo sapiens (Human), UniProt Q9GZT9)
# Sequence (Q9GZT9 whole entry): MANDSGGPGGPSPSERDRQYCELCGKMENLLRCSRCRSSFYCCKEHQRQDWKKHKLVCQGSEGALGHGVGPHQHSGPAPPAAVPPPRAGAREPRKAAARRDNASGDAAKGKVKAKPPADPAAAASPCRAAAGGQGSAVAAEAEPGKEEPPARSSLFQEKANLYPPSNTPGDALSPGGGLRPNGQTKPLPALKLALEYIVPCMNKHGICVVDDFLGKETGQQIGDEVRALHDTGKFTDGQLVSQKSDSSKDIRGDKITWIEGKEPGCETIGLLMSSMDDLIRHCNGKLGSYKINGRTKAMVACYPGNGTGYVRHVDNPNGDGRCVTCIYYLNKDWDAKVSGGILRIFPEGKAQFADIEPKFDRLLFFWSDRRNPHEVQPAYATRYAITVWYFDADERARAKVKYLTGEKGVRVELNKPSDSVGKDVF
# protocol_text: Test 1: human PHD2 inhibitory activity, [14C]-2-oxoglutarate to [14C]-succinic acid radiometric assay with HIF-1α peptide
# Format: biochemical
# experimental_conditions: test compound's concentration 1 μM; Test 1, [14C]-2-oxoglutarate radiometric assay; read-out: Percent inhibition (% at 1 μM)
measurement_name: inhibition at 1 µM (%)

smiles_structure: CCCOc1ccc(CN2C(=O)C(C(=O)NCC(=O)O)=C(O)CC2(C)C)cc1
system_name: human PHD2 (Homo sapiens (Human), UniProt Q9GZT9)
inhibition at 1 µM [%]: 76

smiles_structure: O=C(O)CNC(=O)C1=C(O)C2(CCOCC2)CN(Cc2ccc(-c3ccccn3)cc2)C1=O
system_name: human PHD2 (Homo sapiens (Human), UniProt Q9GZT9)
inhibition at 1 µM [%]: 82

smiles_structure: Cc1ccc(Oc2ccc(CN3C(=O)C(C(=O)NCC(=O)O)=C(O)CC34CC4)cn2)cc1
system_name: human PHD2 (Homo sapiens (Human), UniProt Q9GZT9)
inhibition at 1 µM [%]: 102

smiles_structure: Cc1cccc(Oc2ccc(CN3CCC(O)=C(C(=O)NCC(=O)O)C3=O)cc2)c1
system_name: human PHD2 (Homo sapiens (Human), UniProt Q9GZT9)
inhibition at 1 µM [%]: 95

---

# system_name: human PHD2 (Homo sapiens (Human))
# protocol_text: Test 1: human PHD2 inhibitory activity, [14C]-2-oxoglutarate to [14C]-succinic acid radiometric assay with HIF-1α peptide
# Assay type: biochemical
# experimental_conditions: test compound's concentration 1 μM; Test 1, [14C]-2-oxoglutarate radiometric assay; read-out: Percent inhibition (% at 1 μM)
measurement_name: inhibition at 1 µM (%)

Please review the entries below; each comes with its answer.
compound: CC1(C)CC(O)=C(C(=O)NCC(=O)O)C(=O)N1Cc1ccc(Cl)c(Cl)c1
measurement_name: inhibition at 1 µM
recorded_measurement: 67
//
compound: O=C(O)CNC(=O)C1=C(O)CCN(Cc2ccc(-c3ccncc3)cc2)C1=O
measurement_name: inhibition at 1 µM
recorded_measurement: 96
//
compound: O=C(O)CNC(=O)C1=C(O)CC2(CCC2)N(Cc2ccc(Cl)c(Cl)c2)C1=O
measurement_name: inhibition at 1 µM
recorded_measurement: 80

(1) O=C(O)CNC(=O)C1=C(O)CC(CCc2ccccc2)N(Cc2ccc(C(F)(F)F)cc2)C1=O (stereo not shown)
(2) COc1ccc(CN2C(=O)C(C(=O)NCC(=O)O)=C(O)CC2(C)C)cc1C
Lower value of inhibition at 1 µM belongs to which: 1 or 2 ? Refer to your chosen item by its label in the answer.
2
(2: 41%, 1: 69%)

---

# system_name: human PHD2 (Homo sapiens (Human), UniProt Q9GZT9)
# protocol_text: Test 2: human PHD2 inhibitory activity, fluorescence polarization assay of HIF-1α peptide proline hydroxylation
# Assay type: biochemical
# experimental_conditions: test compound's concentration 1 μM; Test 2, fluorescence polarization assay; read-out: Percent inhibition (% at 1 μM)
measurement_name: inhibition at 1 µM (%)

smiles_structure: O=C(O)CNC(=O)C1=C(O)CCN(Cc2ccc(-c3cccnc3)cn2)C1=O
inhibition at 1 µM [%]: 82

smiles_structure: O=C(O)CNC(=O)C1=C(O)CCN(Cc2ccc(Oc3ccc(Cl)cc3)cc2)C1=O
inhibition at 1 µM [%]: 100

smiles_structure: CC1(C)CC(O)=C(C(=O)NCC(=O)O)C(=O)N1Cc1ccc(Cl)cc1
inhibition at 1 µM [%]: 73

smiles_structure: O=C(O)CNC(=O)C1=C(O)C2(CC2)CN(Cc2ccc(Br)cc2)C1=O
inhibition at 1 µM [%]: 93

smiles_structure: CCc1ccc(O[C@H]2CC[C@H](CN3CCC(O)=C(C(=O)NCC(=O)O)C3=O)CC2)cc1
inhibition at 1 µM [%]: 99

smiles_structure: Cc1ccc(OCc2ccc(CN3CCC(O)=C(C(=O)NCC(=O)O)C3=O)cc2)cn1
inhibition at 1 µM [%]: 94

smiles_structure: Cc1cc(CN2CCC(O)=C(C(=O)NCC(=O)O)C2=O)cnc1OCCC1CC1
inhibition at 1 µM [%]: 90

smiles_structure: Cc1cc(CN2C(=O)C(C(=O)NCC(=O)O)=C(O)CC2(C)C)ccc1OCCCC(F)(F)F
inhibition at 1 µM [%]: 74

---

# system_name: human PHD2 (Homo sapiens (Human), UniProt Q9GZT9)
# protocol_text: Test 2: human PHD2 inhibitory activity, fluorescence polarization assay of HIF-1α peptide proline hydroxylation
# Format: biochemical
# experimental_conditions: test compound's concentration 1 μM; Test 2, fluorescence polarization assay; read-out: Percent inhibition (% at 1 μM)
measurement_name: inhibition at 1 µM (%)

molecule: O=C(O)CNC(=O)C1=C(O)CC(CCc2ccccc2)N(Cc2ccc(C(F)(F)F)cc2)C1=O (centres unmarked)
system_name: human PHD2 (Homo sapiens (Human), UniProt Q9GZT9)
inhibition at 1 µM, %: 81
--
molecule: O=C(O)CNC(=O)C1=C(O)CCN(Cc2ccc(Oc3cccc(C(F)(F)F)c3)nc2)C1=O
system_name: human PHD2 (Homo sapiens (Human), UniProt Q9GZT9)
inhibition at 1 µM, %: 100
--
molecule: COc1ccncc1-c1ccc(CN2CCC(O)=C(C(=O)NCC(=O)O)C2=O)cc1
system_name: human PHD2 (Homo sapiens (Human), UniProt Q9GZT9)
inhibition at 1 µM, %: 87
--
molecule: CC(c1ccc(-c2ccccc2)cc1)N1CCC(O)=C(C(=O)NCC(=O)O)C1=O (centres unmarked)
system_name: human PHD2 (Homo sapiens (Human), UniProt Q9GZT9)
inhibition at 1 µM, %: 95
--
molecule: O=C(O)CNC(=O)C1=C(O)CCN(Cc2ccc(OC3CCCC3)cc2)C1=O
system_name: human PHD2 (Homo sapiens (Human), UniProt Q9GZT9)
inhibition at 1 µM, %: 91
--
molecule: O=C(O)CNC(=O)C1=C(O)CCN(Cc2ccc(Oc3ccc(C(F)(F)F)cc3)nc2)C1=O
system_name: human PHD2 (Homo sapiens (Human), UniProt Q9GZT9)
inhibition at 1 µM, %: 96
--
molecule: O=C(O)CNC(=O)C1=C(O)CCN(Cc2ccc(-c3ccc(C(F)(F)F)cc3)cc2)C1=O
system_name: human PHD2 (Homo sapiens (Human), UniProt Q9GZT9)
inhibition at 1 µM, %: 93
--
molecule: CC1(C)CN(Cc2ccc(C3CC3)cc2)C(=O)C(C(=O)NCC(=O)O)=C1O
system_name: human PHD2 (Homo sapiens (Human), UniProt Q9GZT9)
inhibition at 1 µM, %: 83

All figures here come from patent US9422240B2.
